Hello, the source for this data is PubChem BioAssay (EPA / NIEHS), in case you need it.

Read-out: Intercellular Adhesion Molecule 1 (ICAM1), ICAM1 (gene 3383)
Assay: BSK_KF3CT_ICAM1: BioMAP Diversity Plus: KF3CT Assay for Intercellular Adhesion Molecule 1 (ICAM1) Biomarker Activity (AID 2283067)
Conditions: primary human keratinocytes with fibroblasts; actives raise or lower the signal
Calls of active or inactive are those of the source. The calls were made as follows: active = hit-call score of the fitted dose curve at least 0.9, where 1 is the maximum; inactive = score below 0.9.
Your answer must be one of the following: YES for active, NO for inactive

**Query** Can you look up the reported call for CC(C)(C)C(=O)C(Oc1ccc(Cl)cc1)n1cncn1 (centres undefined) for me?
**Result** NO

**Query** Can you look up the reported call for COCC(=O)N(c1c(C)cccc1C)C(C)C(=O)OC (centres undefined) for me?
**Result** NO

**Query** Can you look up the reported call for COCc1cnc(C2=NC(C)(C(C)C)C(=O)N2)c(C(=O)O)c1 (centres undefined) for me?
**Result** NO

**Query** Can you look up the reported call for CSC(=O)c1c(C(F)F)nc(C(F)(F)F)c(C(=O)SC)c1CC(C)C for me?
**Result** NO

**Query** Can you look up the reported call for Nc1c(Cl)c(Cl)nc(C(=O)O)c1Cl for me?
**Result** NO

**Query** Can you look up the reported call for Clc1cccc(C(Cl)(Cl)Cl)n1 for me?
**Result** NO

**Query** Can you look up the reported call for O=C(Nc1ccccc1-c1ccc(Cl)cc1)c1cccnc1Cl for me?
**Result** NO

**Query** Can you look up the reported call for CCCC(=NOCC)C1=C(O)CC(CC(C)SCC)CC1=O (centres undefined) for me?
**Result** NO

**Query** Can you look up the reported call for CCN(CC)c1nc(C)cc(OP(=S)(OC)OC)n1 for me?
**Result** NO

**Query** Can you look up the reported call for O=C(O)c1c(Cl)ccc2cc(Cl)cnc12 for me?
**Result** NO

**Query** Can you look up the reported call for CC(C)NC(=O)N1CC(=O)N(c2cc(Cl)cc(Cl)c2)C1=O for me?
**Result** NO

**Query** Can you look up the reported call for COC(=O)c1c(C(F)F)nc(C(F)(F)F)c(C2=NCCS2)c1CC(C)C for me?
**Result** NO

**Query** Can you look up the reported call for Cn1c(-c2ccccc2)cc(-c2ccccc2)[n+]1C for me?
**Result** NO

**Query** Can you look up the reported call for COCC(C)N(C(=O)CCl)c1c(C)csc1C (centres undefined) for me?
**Result** NO

**Query** Can you look up the reported call for N#CN=C1SCCN1Cc1ccc(Cl)nc1 for me?
**Result** NO

**Query** Can you look up the reported call for COP(=S)(OC)SCn1nnc2ccccc2c1=O for me?
**Result** NO

**Query** Can you look up the reported call for CC(C)N1C(=O)N(c2ccccc2)CSC1=NC(C)(C)C for me?
**Result** NO

**Query** Can you look up the reported call for CC(C)Nc1nc(Cl)nc(NC(C)C)n1 for me?
**Result** NO

**Query** Can you look up the reported call for COP(=O)(OC)O/C(C)=C/C(=O)N(C)C for me?
**Result** NO

**Query** Can you look up the reported call for CCCCC(O)(Cn1cncn1)c1ccc(Cl)cc1Cl (centres undefined) for me?
**Result** NO

**Query** Can you look up the reported call for O=C1C2CC=CCC2C(=O)N1SC(Cl)(Cl)Cl (centres undefined) for me?
**Result** YES

**Query** Can you look up the reported call for CC1(C)C(C=C(Cl)Cl)C1C(=O)OC(C#N)c1cccc(Oc2ccccc2)c1 (centres undefined) for me?
**Result** NO

**Query** Can you look up the reported call for COC(=O)NS(=O)(=O)c1ccc(N)cc1 for me?
**Result** NO

**Query** Can you look up the reported call for Cc1ccc(N=CN(C)C=Nc2ccc(C)cc2C)c(C)c1 for me?
**Result** NO

**Query** Can you look up the reported call for COc1cc(Cl)c(OC)cc1Cl for me?
**Result** NO

**Query** Can you look up the reported call for CCSC(=O)N1CCCCCC1 for me?
**Result** NO

**Query** Can you look up the reported call for COP(=S)(OC)Oc1ccc([N+](=O)[O-])c(C)c1 for me?
**Result** NO

**Query** Can you look up the reported call for CCC(C)n1c(=O)[nH]c(C)c(Br)c1=O (centres undefined) for me?
**Result** NO

**Query** Can you look up the reported call for CCCCOCN(C(=O)CCl)c1c(CC)cccc1CC for me?
**Result** YES

**Query** Can you look up the reported call for CCNC(=O)NC(=O)C(C#N)=NOC for me?
**Result** NO

**Query** Can you look up the reported call for CCCN(CC)CC1COC2(CCC(C(C)(C)C)CC2)O1 (centres undefined) for me?
**Result** NO

**Query** Can you look up the reported call for Cc1cc(C)nc(Nc2ccccc2)n1 for me?
**Result** NO

**Query** Can you look up the reported call for CCCCC(C#N)(Cn1cncn1)c1ccc(Cl)cc1 (centres undefined) for me?
**Result** NO

**Query** Can you look up the reported call for Cc1nc(N(C)C)nc(OC(=O)N(C)C)c1C for me?
**Result** NO

**Query** Can you look up the reported call for CN/C(=N\[N+](=O)[O-])NCc1cnc(Cl)s1 for me?
**Result** NO

**Query** Can you look up the reported call for CO/N=C(/C1=NOCCO1)c1ccccc1Oc1ncnc(Oc2ccccc2Cl)c1F for me?
**Result** NO

**Query** Can you look up the reported call for COc1cc(OC)nc(NC(=O)NS(=O)(=O)c2ncccc2OCC(F)(F)F)n1 for me?
**Result** NO

**Query** Can you look up the reported call for CC1(C)C(C(=O)OC(C#N)c2cccc(Oc3ccccc3)c2)C1(C)C (centres undefined) for me?
**Result** NO

**Query** Can you look up the reported call for CS(=O)(=O)c1ccc(C(=O)C2C(=O)CCCC2=O)c([N+](=O)[O-])c1 for me?
**Result** NO

**Query** Can you look up the reported call for CC(C)Oc1cccc(NC(=O)c2ccccc2C(F)(F)F)c1 for me?
**Result** NO

**Query** Can you look up the reported call for COC(=O)N(C(=O)N1CO[C@@]2(C(=O)OC)Cc3cc(Cl)ccc3C2=N1)c1ccc(OC(F)(F)F)cc1 for me?
**Result** NO

**Query** Can you look up the reported call for COC(=O)NC(=S)Nc1ccccc1NC(=S)NC(=O)OC for me?
**Result** NO

**Query** Can you look up the reported call for CCN(CC)C(=O)C(C)Oc1cccc2ccccc12 (centres undefined) for me?
**Result** NO

**Query** Can you look up the reported call for O=c1n(Cl)c(=O)n(Cl)c(=O)n1Cl for me?
**Result** NO
